I'd be grateful if you could share measured MIC for these entries.
- System: Clostridium perfringens
- assayMethodText: microbe, parasite or virus in culture
- Type: cell-based
- conditionContext: read-out: MIC of the compounds
Give bare numbers, in ng/mL.

CO[C@H]1/C=C/O[C@@]2(C)Oc3c(C)c(O)c4c(c3C2=O)C(=O)C=C(NC(=O)/C(C)=C\C=C\[C@H](C)[C@H](O)[C@@H](C)[C@@H](O)[C@@H](C)[C@H](OC(=O)CBr)[C@@H]1C)C4=O : 0.3

Form field: reported MIC of CO[C@H]1/C=C/O[C@@]2(C)Oc3c(C)c(O)c4c(c3C2=O)C(=O)C(N2CCOCC2)=C(NC(=O)/C(C)=C\C=C\[C@H](C)[C@H](O)[C@@H](C)[C@@H](O)[C@@H](C)[C@H](OC(=O)CO)[C@@H]1C)C4=O [Compound C15, 36-Hydroxy-3-(4-morpholinyl)rifamycin S] 1

====

Recorded MIC values (Staph. aureus rifa-r^(1)) are given below.
Numbers only, in µg/mL.

Some molecules with recorded MIC:
CO[C@H]1/C=C/O[C@@]2(C)Oc3c(C)c(O)c4c(c3C2=O)C(=O)C=C(NC(=O)/C(C)=C\C=C\[C@H](C)[C@H](O)[C@@H](C)[C@@H](O)[C@@H](C)[C@H](OC(=O)COC(C)=O)[C@@H]1C)C4=O [Compound C13, 36-Acetyloxyrifamycin S] : 0.25
CO[C@H]1/C=C/O[C@@]2(C)Oc3c(C)c(O)c4c(c3C2=O)C(=O)C=C(NC(=O)/C(C)=C\C=C\[C@H](C)[C@H](O)[C@@H](C)[C@@H](O)[C@@H](C)[C@H](OC(=O)CCl)[C@@H]1C)C4=O [Compound C3, 36-Chlororifamycin S] : 1

# per-item lookup of MIC; items listed below
1. CO[C@H]1/C=C/O[C@@]2(C)Oc3c(C)c(O)c4c(O)c(c(C=NN5CCN(C)CC5)c(O)c4c3C2=O)NC(=O)/C(C)=C\C=C\[C@H](C)[C@H](O)[C@@H](C)[C@@H](O)[C@@H](C)[C@H](OC(=O)COC(=O)c2cn(C3CC3)c3cc(-c4cc(C)nc(C)c4)c(F)cc3c2=O)[C@@H]1C [Compound C29]
2. CCn1cc(C(=O)OCC(=O)O[C@H]2[C@H](C)[C@H](O)[C@H](C)[C@@H](O)[C@@H](C)/C=C/C=C(/C)C(=O)Nc3c(C=NN4CCN(C)CC4)c(O)c4c5c(c(C)c(O)c4c3O)O[C@](C)(O/C=C/[C@H](OC)[C@H]2C)C5=O)c(=O)c2cc(F)c(N3CCN(C)CC3)cc21 [Compound C25]
3. CO[C@H]1/C=C/O[C@@]2(C)Oc3c(C)c(O)c4c(c3C2=O)C(=O)C(N2CCOCC2)=C(NC(=O)/C(C)=C\C=C\[C@H](C)[C@H](O)[C@@H](C)[C@@H](O)[C@@H](C)[C@H](OC(=O)CO)[C@@H]1C)C4=O [Compound C15, 36-Hydroxy-3-(4-morpholinyl)rifamycin S]

0.5
0.13
2

====

- Tested on: Haemoph. influenzae ATCC 19418
Please go through the items and note down their MIC.
Remember to quote the unit after the number.

Sample answers from the record:
CO[C@H]1/C=C/O[C@@]2(C)Oc3c(C)c(O)c4c(c3C2=O)C(=O)C(N2CCOCC2)=C(NC(=O)/C(C)=C\C=C\[C@H](C)[C@H](O)[C@@H](C)[C@@H](O)[C@@H](C)[C@H](OC(=O)CO)[C@@H]1C)C4=O [Compound C15, 36-Hydroxy-3-(4-morpholinyl)rifamycin S] : 0.06 µg/mL
CCn1cc(C(=O)OCC(=O)O[C@H]2[C@H](C)[C@H](O)[C@H](C)[C@@H](O)[C@@H](C)/C=C/C=C(/C)C(=O)Nc3c(C=NN4CCN(C)CC4)c(O)c4c5c(c(C)c(O)c4c3O)O[C@](C)(O/C=C/[C@H](OC)[C@H]2C)C5=O)c(=O)cc1N1CCN(C)CC1 : 1 µg/mL

Which MIC is listed for `CCn1cc(C(=O)OCC(=O)O[C@H]2[C@H](C)[C@H](O)[C@H](C)[C@@H](O)[C@@H](C)/C=C/C=C(/C)C(=O)Nc3c(C=NN4CCN(C5CCCC5)CC4)c(O)c4c5c(c(C)c(O)c4c3O)O[C@](C)(O/C=C/[C@H](OC)[C@H]2C)C5=O)c(=O)c2cc(F)c(N3CCN(C)CC3)cc21` ? 1 µg/mL

====

- System: Proteus vulgaris ATCC 881
- assayMethodText: MIC by broth microdilution
- Type: cell-based
- conditionContext: Proteus vulgaris, ATCC881; internal code L79; read-out: MIC of the compounds
Record form. Attribute: MIC. Fill in for each entry.
Give bare numbers, in µg/mL.

CO[C@H]1/C=C/O[C@@]2(C)Oc3c(C)c(O)c4c(c3C2=O)C(=O)C=C(NC(=O)/C(C)=C\C=C\[C@H](C)[C@H](O)[C@@H](C)[C@@H](O)[C@@H](C)[C@H](OC(=O)CF)[C@@H]1C)C4=O [Compound C2, 36-Fluororifamycin S] : 32

Next item in the queue.
Form field: MIC recorded for CO[C@H]1/C=C/O[C@@]2(C)Oc3c(C)c(O)c4c(c3C2=O)C(=O)C=C(NC(=O)/C(C)=C\C=C\[C@H](C)[C@H](O)[C@@H](C)[C@@H](O)[C@@H](C)[C@H](OC(=O)CBr)[C@@H]1C)C4=O [Compound C1, 36-Bromorifamycin S] with Proteus vulgaris ATCC 881 (enter value) 16

====

Entries below carry reported MIC on Proteus vulgaris ATCC 881.
Give bare numbers, in µg/mL.

Hi! Can you tell me MIC for each of these molecules?
1. CCn1cc(C(=O)OCC(=O)O[C@H]2[C@H](C)[C@H](O)[C@H](C)[C@@H](O)[C@@H](C)/C=C/C=C(/C)C(=O)Nc3c(C=NN4CCN(C)CC4)c(O)c4c5c(c(C)c(O)c4c3O)O[C@](C)(O/C=C/[C@H](OC)[C@H]2C)C5=O)c(=O)cc1N1CCN(C)CC1 [Compound C30]
2. CCN(CC)CC(=O)O[C@H]1[C@H](C)[C@H](O)[C@H](C)[C@@H](O)[C@@H](C)/C=C/C=C(/C)C(=O)NC2=CC(=O)c3c(c(O)c(C)c4c3C(=O)[C@@](C)(O/C=C/[C@H](OC)[C@H]1C)O4)C2=O [Compound C12, 36-Diethylaminorifamycin S]
3. CO[C@H]1/C=C/O[C@@]2(C)Oc3c(C)c(O)c4c(c3C2=O)C(=O)C=C(NC(=O)/C(C)=C\C=C\[C@H](C)[C@H](O)[C@@H](C)[C@@H](O)[C@@H](C)[C@H](OC(=O)CI)[C@@H]1C)C4=O [Compound C10, 36-Iodorifamycin S]

1. 16
2. 8
3. 32

====

- Test system: Esch. coli K12 rifa-r^(1)
- assayMethodText: MIC by broth microdilution
- Format: cell-based, Escherichia coli
- conditionContext: Escherichia coli, read-out: MIC of the compounds
Exercise: for every item that follows, state its recorded MIC.

// below: answered compounds
CO[C@H]1/C=C/O[C@@]2(C)Oc3c(C)c(O)c4c(c3C2=O)C(=O)C=C(NC(=O)/C(C)=C\C=C\[C@H](C)[C@H](O)[C@@H](C)[C@@H](O)[C@@H](C)[C@H](OC(=O)COC(C)=O)[C@@H]1C)C4=O : > 128 µg/mL
CO[C@H]1/C=C/O[C@@]2(C)Oc3c(C)c(O)c4c(c3C2=O)C(=O)C(N2CCOCC2)=C(NC(=O)/C(C)=C\C=C\[C@H](C)[C@H](O)[C@@H](C)[C@@H](O)[C@@H](C)[C@H](OC(=O)CO)[C@@H]1C)C4=O [Compound C15, 36-Hydroxy-3-(4-morpholinyl)rifamycin S] : > 128 µg/mL

Provide MIC values for the following items, in order.
1. CO[C@H]1/C=C/O[C@@]2(C)Oc3c(C)c(O)c4c(c3C2=O)C(=O)C=C(NC(=O)/C(C)=C\C=C\[C@H](C)[C@H](O)[C@@H](C)[C@@H](O)[C@@H](C)[C@H](OC(=O)CI)[C@@H]1C)C4=O
2. CO[C@H]1/C=C/O[C@@]2(C)Oc3c(C)c(O)c4c(c3C2=O)C(=O)C=C(NC(=O)/C(C)=C\C=C\[C@H](C)[C@H](O)[C@@H](C)[C@@H](O)[C@@H](C)[C@H](OC(=O)CCl)[C@@H]1C)C4=O

1: ≥ 128 µg/mL; 2: > 128 µg/mL

====

- Tested on: Staph. haemolyticus rifa-r^(2)
- assayMethodText: MIC by broth microdilution
- Type: cell-based
- conditionContext: Staphylococcus haemolyticus, read-out: MIC of the compounds
Provide the recorded MIC for the entries that follow.

CO[C@H]1/C=C/O[C@@]2(C)Oc3c(C)c(O)c4c(c3C2=O)C(=O)C=C(NC(=O)/C(C)=C\C=C\[C@H](C)[C@H](O)[C@@H](C)[C@@H](O)[C@@H](C)[C@H](OC(=O)CBr)[C@@H]1C)C4=O [Compound C1, 36-Bromorifamycin S] : 32 µg/mL
CO[C@H]1/C=C/O[C@@]2(C)Oc3c(C)c(O)c4c(c3C2=O)C(=O)C(N2CCOCC2)=C(NC(=O)/C(C)=C\C=C\[C@H](C)[C@H](O)[C@@H](C)[C@@H](O)[C@@H](C)[C@H](OC(=O)CBr)[C@@H]1C)C4=O [Compound C8, 36-Bromo-3-(4-morpholinyl)rifamycin S] : 16 µg/mL
CCn1cc(C(=O)OCC(=O)O[C@H]2[C@H](C)[C@H](O)[C@H](C)[C@@H](O)[C@@H](C)/C=C/C=C(/C)C(=O)Nc3c(C=NN4CCN(C5CCCC5)CC4)c(O)c4c5c(c(C)c(O)c4c3O)O[C@](C)(O/C=C/[C@H](OC)[C@H]2C)C5=O)c(=O)c2cc(F)c(N3CCN(C)CC3)cc21 [Compound C26] : 0.5 µg/mL

Note: attention shifts to another entry.
Staph. haemolyticus rifa-r^(2) / MIC / CO[C@H]1/C=C/O[C@@]2(C)Oc3c(C)c(O)c4c(c3C2=O)C(=O)C=C(NC(=O)/C(C)=C\C=C\[C@H](C)[C@H](O)[C@@H](C)[C@@H](O)[C@@H](C)[C@H](OC(=O)CSC)[C@@H]1C)C4=O [Compound C4, 36-Methylthiorifamycin S] : value? 128 µg/mL
